protocol_text: activity coefficient (dimensionless); of the first substance listed, at infinite dilution; xn = mol fraction of the nth substance listed
condition: 368.2 K; 101 kPa; Liquid; Chromatography; x1 = 0
readout_name: activity coefficient

# compound, activity coefficient
rows = [
    ("Cc1cccc(C)c1 [1,3-dimethylbenzene] + CCCCn1cc[n+](C)c1.Cc1ccc(S(=O)(=O)[O-])cc1", 4.58),
    ("CCCCCCCCCC [decane] + CCCCn1cc[n+](C)c1.Cc1ccc(S(=O)(=O)[O-])cc1", 90.8),
    ("CCc1ccccc1 [ethylbenzene] + CCCCn1cc[n+](C)c1.Cc1ccc(S(=O)(=O)[O-])cc1", 4.32),
    ("CCCCCCCC [octane] + CCCCn1cc[n+](C)c1.Cc1ccc(S(=O)(=O)[O-])cc1", 49.6),
    ("C=CCCCCCC [oct-1-ene] + CCCCn1cc[n+](C)c1.Cc1ccc(S(=O)(=O)[O-])cc1", 28.2),
]

Attention now turns to another entry.
// lookup activity coefficient for C#CCCCCC [1-heptyne] + CCCCn1cc[n+](C)c1.Cc1ccc(S(=O)(=O)[O-])cc1
5.43

====

protocol_text: activity coefficient (dimensionless); of the first substance listed, at infinite dilution; xn = mol fraction of the nth substance listed
condition: 348.2 K; 101 kPa; Liquid; Chromatography; x1 = 0
readout_name: activity coefficient
When you answer, write just the number.

# molecule, measured
rows = [
    ("C=CCCCCC [1-heptene] + CCCCn1cc[n+](C)c1.Cc1ccc(S(=O)(=O)[O-])cc1", 22.5),
    ("C1CCCCCCC1 [cyclooctane] + CCCCn1cc[n+](C)c1.Cc1ccc(S(=O)(=O)[O-])cc1", 19.7),
    ("Cc1ccccc1 [toluene] + CCCCn1cc[n+](C)c1.Cc1ccc(S(=O)(=O)[O-])cc1", 3.01),
    ("Cc1cccc(C)c1 [1,3-dimethylbenzene] + CCCCn1cc[n+](C)c1.Cc1ccc(S(=O)(=O)[O-])cc1", 4.67),
    ("CCCCCCCCC [nonane] + CCCCn1cc[n+](C)c1.Cc1ccc(S(=O)(=O)[O-])cc1", 77.5),
]

For the molecule shown here, C=CCCC [1-pentene] + CCCCn1cc[n+](C)c1.Cc1ccc(S(=O)(=O)[O-])cc1 , give the reported activity coefficient.
12.6

What does the record list as activity coefficient for CCCO [propan-1-ol] + CCCCn1cc[n+](C)c1.Cc1ccc(S(=O)(=O)[O-])cc1 ?
0.434

====

protocol_text: activity coefficient (dimensionless); of the first substance listed, at infinite dilution; xn = mol fraction of the nth substance listed
condition: 358.2 K; 101 kPa; Liquid; Chromatography; x1 = 0
Labels assigned by activity coefficient range: small value = under 4, mid value = from 4 up to 10, large value = 10 and over

Examples from the recorded data:
# compound, class_name
data = [
    ("C1CCCCC1 [cyclohexane] + CCCCn1cc[n+](C)c1.Cc1ccc(S(=O)(=O)[O-])cc1", "large value"),
    ("C#CCCCCC [1-heptyne] + CCCCn1cc[n+](C)c1.Cc1ccc(S(=O)(=O)[O-])cc1", "mid value"),
    ("C1CCCC1 [cyclopentane] + CCCCn1cc[n+](C)c1.Cc1ccc(S(=O)(=O)[O-])cc1", "mid value"),
    ("C1CCOC1 [tetrahydrofuran] + CCCCn1cc[n+](C)c1.Cc1ccc(S(=O)(=O)[O-])cc1", "small value"),
    ("C1CCCCCC1 [cycloheptane] + CCCCn1cc[n+](C)c1.Cc1ccc(S(=O)(=O)[O-])cc1", "large value"),
]

Class? Entry: CCCOCCC [dipropyl ether] + CCCCn1cc[n+](C)c1.Cc1ccc(S(=O)(=O)[O-])cc1
large value

Please let me know in which category the item CCCC(C)=O [pentan-2-one] + CCCCn1cc[n+](C)c1.Cc1ccc(S(=O)(=O)[O-])cc1 belongs.
small value

Tag the class for C=CCCC [1-pentene] + CCCCn1cc[n+](C)c1.Cc1ccc(S(=O)(=O)[O-])cc1
large value

State the band of CCc1ccccc1 [ethylbenzene] + CCCCn1cc[n+](C)c1.Cc1ccc(S(=O)(=O)[O-])cc1
mid value

Exercise: read the entry C1CCCCCCC1 [cyclooctane] + CCCCn1cc[n+](C)c1.Cc1ccc(S(=O)(=O)[O-])cc1 and state which class it falls under.
large value

====

activity coefficient listing for selected compounds.
protocol_text: activity coefficient (dimensionless); of the first substance listed, at infinite dilution; xn = mol fraction of the nth substance listed
condition: 358.2 K; 101 kPa; Liquid; Chromatography; x1 = 0
The answer should be written as a number, with no unit following it.

# count of solved cases: 3
# compound, readout_name, measured
records = [
    ("CCC(=O)CC [pentan-3-one] + CCCCn1cc[n+](C)c1.Cc1ccc(S(=O)(=O)[O-])cc1", "activity coefficient", 2.63),
    ("c1ccccc1 [benzene] + CCCCn1cc[n+](C)c1.Cc1ccc(S(=O)(=O)[O-])cc1", "activity coefficient", 1.93),
    ("Cc1ccc(C)cc1 [1,4-dimethylbenzene] + CCCCn1cc[n+](C)c1.Cc1ccc(S(=O)(=O)[O-])cc1", "activity coefficient", 4.61),
]

Return reported activity coefficient; argument: C=CCCCCCC [oct-1-ene] + CCCCn1cc[n+](C)c1.Cc1ccc(S(=O)(=O)[O-])cc1
29.5

====

protocol_text: activity coefficient (dimensionless); of the first substance listed, at infinite dilution; xn = mol fraction of the nth substance listed
condition: 368.2 K; 101 kPa; Liquid; Chromatography; x1 = 0
Note that class boundaries on activity coefficient are LOW: < 3; MID: ≥ 3 and < 9; HIGH: ≥ 9

Please classify: C1CCOC1 [tetrahydrofuran] + CCCCn1cc[n+](C)c1.Cc1ccc(S(=O)(=O)[O-])cc1
LOW

Entry COC(C)(C)C [2-methoxy-2-methylpropane] + CCCCn1cc[n+](C)c1.Cc1ccc(S(=O)(=O)[O-])cc1 belongs to which category?
MID

Where would Cc1ccccc1C [1,2-dimethylbenzene] + CCCCn1cc[n+](C)c1.Cc1ccc(S(=O)(=O)[O-])cc1 land among the classes by reported activity coefficient?
MID

Form field 'band' for C#CCCCC [1-hexyne] + CCCCn1cc[n+](C)c1.Cc1ccc(S(=O)(=O)[O-])cc1
MID

Please classify: CCO [ethanol] + CCCCn1cc[n+](C)c1.Cc1ccc(S(=O)(=O)[O-])cc1
LOW

====

protocol_text: activity coefficient (dimensionless); of the first substance listed, at infinite dilution; xn = mol fraction of the nth substance listed
condition: 348.2 K; 101 kPa; Liquid; Chromatography; x1 = 0
Listed compounds paired with reported activity coefficient
Answer field: number only, no words.

# compound, readout_name, measured
measured = [
    ("CCO [ethanol] + CCCCn1cc[n+](C)c1.Cc1ccc(S(=O)(=O)[O-])cc1", "activity coefficient", 0.357),
    ("CCCC(C)=O [pentan-2-one] + CCCCn1cc[n+](C)c1.Cc1ccc(S(=O)(=O)[O-])cc1", "activity coefficient", 2.64),
]

# activity coefficient lookup, item CCOCC [diethyl ether] + CCCCn1cc[n+](C)c1.Cc1ccc(S(=O)(=O)[O-])cc1
6.36

# lookup: activity coefficient of c1ccsc1 [thiophene] + CCCCn1cc[n+](C)c1.Cc1ccc(S(=O)(=O)[O-])cc1
1.13

Fill in: activity coefficient of C1CCOC1 [tetrahydrofuran] + CCCCn1cc[n+](C)c1.Cc1ccc(S(=O)(=O)[O-])cc1 is ___
1.87

Please give the measured activity coefficient for this compound: CCc1ccccc1 [ethylbenzene] + CCCCn1cc[n+](C)c1.Cc1ccc(S(=O)(=O)[O-])cc1
4.4

May I ask what activity coefficient has been recorded for C1CCCC1 [cyclopentane] + CCCCn1cc[n+](C)c1.Cc1ccc(S(=O)(=O)[O-])cc1 ?
9.9

Requested field: activity coefficient. Item: C#CCCCCC [1-heptyne] + CCCCn1cc[n+](C)c1.Cc1ccc(S(=O)(=O)[O-])cc1
5.23

====

protocol_text: activity coefficient (dimensionless); of the first substance listed, at infinite dilution; xn = mol fraction of the nth substance listed
condition: 368.2 K; 101 kPa; Liquid; Chromatography; x1 = 0
Friendly reminder: activity coefficient below 3 is satisfied, at or above is not satisfied.

Look over these answered cases.
# compound, class_name
measured = [
    ("Cc1ccc(C)cc1 [1,4-dimethylbenzene] + CCCCn1cc[n+](C)c1.Cc1ccc(S(=O)(=O)[O-])cc1", "not satisfied"),
    ("C=CCCCCC [1-heptene] + CCCCn1cc[n+](C)c1.Cc1ccc(S(=O)(=O)[O-])cc1", "not satisfied"),
    ("C=CCCC [1-pentene] + CCCCn1cc[n+](C)c1.Cc1ccc(S(=O)(=O)[O-])cc1", "not satisfied"),
    ("c1ccsc1 [thiophene] + CCCCn1cc[n+](C)c1.Cc1ccc(S(=O)(=O)[O-])cc1", "satisfied"),
    ("O [water] + CCCCn1cc[n+](C)c1.Cc1ccc(S(=O)(=O)[O-])cc1", "satisfied"),
    ("CCCC(C)=O [pentan-2-one] + CCCCn1cc[n+](C)c1.Cc1ccc(S(=O)(=O)[O-])cc1", "satisfied"),
]

Could you please tell me whether activity coefficient recorded for CO [methanol] + CCCCn1cc[n+](C)c1.Cc1ccc(S(=O)(=O)[O-])cc1 is less than 3?
satisfied

Item CCC(=O)CC [pentan-3-one] + CCCCn1cc[n+](C)c1.Cc1ccc(S(=O)(=O)[O-])cc1 : activity coefficient beneath 3, strictly?
satisfied

In plain terms, does C1CCCCCC1 [cycloheptane] + CCCCn1cc[n+](C)c1.Cc1ccc(S(=O)(=O)[O-])cc1 come in under 3 for activity coefficient?
not satisfied
